Target: acetylcholinesterase (AChE) (Homo sapiens, UniProt P22303)
Sequence (P22303 32-614): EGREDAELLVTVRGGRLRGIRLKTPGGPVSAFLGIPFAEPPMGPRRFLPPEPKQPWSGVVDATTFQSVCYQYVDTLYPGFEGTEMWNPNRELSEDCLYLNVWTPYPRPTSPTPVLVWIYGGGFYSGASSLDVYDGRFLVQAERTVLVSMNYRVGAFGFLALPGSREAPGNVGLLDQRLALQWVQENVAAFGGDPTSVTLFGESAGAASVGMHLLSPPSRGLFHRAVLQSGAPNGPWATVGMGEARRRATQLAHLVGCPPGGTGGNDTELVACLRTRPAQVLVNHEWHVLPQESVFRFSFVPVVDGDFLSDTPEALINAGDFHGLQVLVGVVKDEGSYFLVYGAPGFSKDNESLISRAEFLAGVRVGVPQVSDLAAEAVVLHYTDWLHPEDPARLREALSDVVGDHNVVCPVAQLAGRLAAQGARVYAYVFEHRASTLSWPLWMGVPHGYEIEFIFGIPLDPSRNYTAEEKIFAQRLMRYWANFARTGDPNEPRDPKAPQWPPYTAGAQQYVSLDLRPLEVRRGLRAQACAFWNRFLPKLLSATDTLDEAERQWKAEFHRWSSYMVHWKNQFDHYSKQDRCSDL
Experiment: Acetylcholinesterase inhibition assay
Assay type: biochemical
Conditions: 0.5 mM; n = 3, mean ± sem; read-out: Acetylcholinestrase (AChE) inhibition (%) at 0.5 mM
Description: The AChE inhibition activity was performed according to the reported method ([14]) with slight modifications. Total volume of the reaction mixture was 100 μL. It contained 60 μL Na2HPO4 buffer with concentration of 50 mM and pH 7.7. […] The contents were mixed and pre-read at 405 nm. […] After 15 min of incubation at 37 °C, absorbance was measured at 405 nm. Synergy HT (BioTek, USA) 96-well plate reader was used in all experiments. […] The percent inhibition was calculated by the help of following equation )[19] […]
# inhibition at 500 µM per entry
Answer with a number only, understood to be in %.

Solved entries:
[[record]]
molecule = "CCOc1cc(Br)c(Br)cc1N(CC)S(=O)(=O)c1ccccc1 [Compound 6a]"
value = 28.9

[[record]]
molecule = "CCOc1cc(Br)c(Br)cc1N(CCc1ccccc1)S(=O)(=O)c1ccccc1 [Compound 6f]"
value = 77.6

[[record]]
molecule = "CCOc1cc(Br)c(Br)cc1N(Cc1ccccc1)S(=O)(=O)c1ccccc1 [Compound 6e]"
value = 79.3

[[record]]
molecule = "C=CCN(c1cc(Br)c(Br)cc1OCC)S(=O)(=O)c1ccccc1 [Compound 6c]"
value = 72.2


Sample CCOc1cc(Br)c(Br)cc1N(CCCc1ccccc1)S(=O)(=O)c1ccccc1 [Compound 6g] , system: acetylcholinesterase (AChE) (Homo sapiens, UniProt P22303). Its inhibition at 500 µM is 77.2

Known value: acetylcholinesterase (AChE) (Homo sapiens, UniProt P22303) inhibition at 500 µM of the molecule CCOc1cc(Br)c(Br)cc1N(C(C)C)S(=O)(=O)c1ccccc1 [Compound 6b] equals 79.1

###

target: acetylcholinesterase (AChE) (Homo sapiens); experiment: Acetylcholinesterase inhibition assay; format: biochemical; conditions: n = 3, mean ± sem; read-out: Acetylcholinestrase (AChE) (IC50)
The entries below come with measured pIC50 values attached.
Here pIC50 is given on a logarithmic scale as minus log10 of the concentration in mol/L.

These solved cases illustrate the format of a correct answer.
[[record]]
molecule = "CCOc1cc(Br)c(Br)cc1N(CCCc1ccccc1)S(=O)(=O)c1ccccc1 [Compound 6g]"
measured_attribute = "pIC50"
value = 3.80

[[record]]
molecule = "CCOc1cc(Br)c(Br)cc1N(Cc1ccccc1)S(=O)(=O)c1ccccc1 [Compound 6e]"
measured_attribute = "pIC50"
value = 4.05

[[record]]
molecule = "CCOc1cc(Br)c(Br)cc1N(C(C)C)S(=O)(=O)c1ccccc1 [Compound 6b]"
measured_attribute = "pIC50"
value = 4.06

[[record]]
molecule = "CCOc1cc(Br)c(Br)cc1N(Cc1ccc(Cl)cc1)S(=O)(=O)c1ccccc1 [Compound 6l]"
measured_attribute = "pIC50"
value = 3.90

[[record]]
molecule = "CCOc1cc(Br)c(Br)cc1N(CCc1ccccc1)S(=O)(=O)c1ccccc1 [Compound 6f]"
measured_attribute = "pIC50"
value = 4.06

[[record]]
molecule = "CCOc1cc(Br)c(Br)cc1N(Cc1ccccc1Cl)S(=O)(=O)c1ccccc1 [Compound 6k]"
measured_attribute = "pIC50"
value = 4.28

[[record]]
molecule = "CCOc1cc(Br)c(Br)cc1N(Cc1cccc(Cl)c1)S(=O)(=O)c1ccccc1 [Compound 6i]"
measured_attribute = "pIC50"
value = 4.13

[[record]]
molecule = "CCOc1cc(Br)c(Br)cc1N(Cc1ccc(Br)cc1)S(=O)(=O)c1ccccc1 [Compound 6h]"
measured_attribute = "pIC50"
value = 3.84

[[record]]
molecule = "CCOc1cc(Br)c(Br)cc1N(Cc1ccc(F)cc1)S(=O)(=O)c1ccccc1 [Compound 6j]"
measured_attribute = "pIC50"
value = 4.15


Measured pIC50 of C=CCN(c1cc(Br)c(Br)cc1OCC)S(=O)(=O)c1ccccc1 [Compound 6c] : 3.84

###

biological target: lipoxygenase (LOX) (Glycine max)
measured.attribute: IC50 (µM)
Numbers only; they are read as µM.

# O=c1cc(-c2ccccc2)oc2cc(O)c(O)c(O)c12 [Baicalein, reference compound] with lipoxygenase (LOX) (Glycine max): IC50 is 22.4

###

target: lipoxygenase (LOX) (Glycine max); test: Lipoxygenase inhibition assay; assay type: biochemical; conditions: n = 3, mean ± sem
measured.attribute: Lipoxygenase (LOX) (IC50)

Consider the worked cases shown below.
[[record]]
query_smiles = "CCOc1cc(Br)c(Br)cc1NS(=O)(=O)c1ccccc1"
value = "NIL"

[[record]]
query_smiles = "CCOc1cc(Br)c(Br)cc1N(Cc1ccc(Br)cc1)S(=O)(=O)c1ccccc1"
value = "NIL"

[[record]]
query_smiles = "CCOc1cc(Br)c(Br)cc1N(Cc1cccc(Cl)c1)S(=O)(=O)c1ccccc1"
value = "NIL"

[[record]]
query_smiles = "CCOc1cc(Br)c(Br)cc1N(Cc1ccccc1)S(=O)(=O)c1ccccc1"
value = "NIL"


Please turn your attention to the following entry.
Entry `CCOc1cc(Br)c(Br)cc1N(Cc1ccccc1Cl)S(=O)(=O)c1ccccc1` , Lipoxygenase (LOX) (IC50) reported as NIL

###

target: butyrylcholinesterase (BChE) (Homo sapiens); experiment: Butyrylcholinesterase inhibition assay; assay type: biochemical; settings: 0.5 mM; n = 3, mean ± sem; read-out: Butyrylcholinesterase (BChE) inhibition (%) at 0.5 mM
measured.attribute: inhibition at 500 µM (%)
Answer in %, number only, no unit symbol.

Some molecules with known inhibition at 500 µM results, for comparison:
[[record]]
query_smiles = "CCOc1cc(Br)c(Br)cc1NS(=O)(=O)c1ccccc1"
value = 80.8

[[record]]
query_smiles = "CCOc1cc(Br)c(Br)cc1N(Cc1cccc(Cl)c1)S(=O)(=O)c1ccccc1"
value = 91.8

[[record]]
query_smiles = "CCOc1cc(Br)c(Br)cc1N(CC)S(=O)(=O)c1ccccc1"
value = 85.3

[[record]]
query_smiles = "CCOc1cc(Br)c(Br)cc1N(Cc1ccccc1Cl)S(=O)(=O)c1ccccc1"
value = 93.7


Entry `CCOc1cc(Br)c(Br)cc1N(Cc1ccccc1)S(=O)(=O)c1ccccc1` — recorded inhibition at 500 µM = 85.9

For record `CCOc1cc(Br)c(Br)cc1N(Cc1ccc(Cl)cc1)S(=O)(=O)c1ccccc1` the listed inhibition at 500 µM is 66.3

###

target: lipoxygenase (LOX) (Glycine max, UniProt P08170); experiment: Lipoxygenase inhibition assay; format: biochemical; settings: 0.5 mM; n = 3, mean ± sem
Sequence (P08170 whole entry): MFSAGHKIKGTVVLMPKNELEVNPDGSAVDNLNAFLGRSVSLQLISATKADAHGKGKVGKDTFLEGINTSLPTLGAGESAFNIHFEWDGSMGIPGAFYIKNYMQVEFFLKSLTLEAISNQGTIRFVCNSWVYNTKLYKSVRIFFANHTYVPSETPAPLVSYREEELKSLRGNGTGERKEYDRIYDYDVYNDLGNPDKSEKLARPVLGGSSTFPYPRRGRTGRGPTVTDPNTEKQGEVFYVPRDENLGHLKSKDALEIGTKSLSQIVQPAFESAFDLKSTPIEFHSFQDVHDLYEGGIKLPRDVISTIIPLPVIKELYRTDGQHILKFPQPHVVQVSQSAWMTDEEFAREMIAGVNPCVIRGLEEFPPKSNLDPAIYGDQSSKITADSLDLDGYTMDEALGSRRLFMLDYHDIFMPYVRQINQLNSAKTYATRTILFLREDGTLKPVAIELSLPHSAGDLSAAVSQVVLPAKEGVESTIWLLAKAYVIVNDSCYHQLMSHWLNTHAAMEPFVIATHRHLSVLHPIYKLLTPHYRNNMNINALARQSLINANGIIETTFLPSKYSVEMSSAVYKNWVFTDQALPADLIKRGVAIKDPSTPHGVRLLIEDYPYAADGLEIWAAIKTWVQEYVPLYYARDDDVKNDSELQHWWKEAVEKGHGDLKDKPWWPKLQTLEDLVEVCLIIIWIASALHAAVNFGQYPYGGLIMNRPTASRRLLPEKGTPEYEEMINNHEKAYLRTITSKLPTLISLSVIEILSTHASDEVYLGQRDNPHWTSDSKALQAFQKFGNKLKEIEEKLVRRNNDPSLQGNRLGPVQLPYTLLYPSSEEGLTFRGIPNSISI
Entries and their inhibition at 500 µM values follow.
Value expressed in %; do not type the unit.

[[record]]
compound = "CCOc1cc(Br)c(Br)cc1NS(=O)(=O)c1ccccc1 [Compound 4]"
system_under_test = "lipoxygenase (LOX) (Glycine max, UniProt P08170)"
measured_attribute = "inhibition at 500 µM"
value = 11.6


Measured inhibition at 500 µM, C=CCN(c1cc(Br)c(Br)cc1OCC)S(=O)(=O)c1ccccc1 [Compound 6c] : 66.3

The compound listed as CCOc1cc(Br)c(Br)cc1N(CCCc1ccccc1)S(=O)(=O)c1ccccc1 [Compound 6g] shows inhibition at 500 µM equal to 75.2

Sample CCOc1cc(Br)c(Br)cc1N(Cc1ccc(F)cc1)S(=O)(=O)c1ccccc1 [Compound 6j] ; inhibition at 500 µM observed: 51.2

// field: inhibition at 500 µM; key: CCOc1cc(Br)c(Br)cc1N(Cc1ccc(Br)cc1)S(=O)(=O)c1ccccc1 [Compound 6h] ; value = 37

The compound listed as CCOc1cc(Br)c(Br)cc1N(CCBr)S(=O)(=O)c1ccccc1 [Compound 6d] shows inhibition at 500 µM equal to 84

###

molecular target: butyrylcholinesterase (BChE) (Homo sapiens, UniProt P06276); test: Butyrylcholinesterase inhibition assay; format: biochemical
Sequence (P06276 29-602): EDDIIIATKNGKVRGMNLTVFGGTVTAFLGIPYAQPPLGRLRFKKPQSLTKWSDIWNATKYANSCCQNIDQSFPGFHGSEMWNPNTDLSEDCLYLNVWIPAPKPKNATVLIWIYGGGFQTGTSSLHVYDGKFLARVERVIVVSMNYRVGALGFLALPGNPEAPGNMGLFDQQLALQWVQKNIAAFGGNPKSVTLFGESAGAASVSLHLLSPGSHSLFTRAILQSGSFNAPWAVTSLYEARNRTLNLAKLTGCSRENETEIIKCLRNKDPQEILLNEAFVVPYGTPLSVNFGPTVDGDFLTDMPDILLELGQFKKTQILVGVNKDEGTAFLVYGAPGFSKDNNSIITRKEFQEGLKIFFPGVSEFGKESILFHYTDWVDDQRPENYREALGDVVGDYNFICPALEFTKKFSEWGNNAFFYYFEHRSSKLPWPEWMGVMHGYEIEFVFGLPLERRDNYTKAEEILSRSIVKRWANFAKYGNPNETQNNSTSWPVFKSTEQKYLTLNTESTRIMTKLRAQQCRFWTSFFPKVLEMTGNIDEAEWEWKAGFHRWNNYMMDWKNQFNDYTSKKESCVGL
measured.attribute: IC50 (µM)
Write the value in µM as a bare number.

# compound `CCOc1cc(Br)c(Br)cc1N(CCBr)S(=O)(=O)c1ccccc1` ; its IC50 = 45.3

###

Below: a set of entries, each annotated with reported IC50.
target: butyrylcholinesterase (BChE) (Homo sapiens); experiment: Butyrylcholinesterase inhibition assay; type: biochemical; details: n = 3, mean ± sem; read-out: Butyrylcholinesterase (BChE) (IC50)
Respond with the bare value in µM.

[[record]]
query_smiles = "CCOc1cc(Br)c(Br)cc1N(Cc1ccc(Cl)cc1)S(=O)(=O)c1ccccc1"
system_under_test = "butyrylcholinesterase (BChE) (Homo sapiens)"
reading_unit = "µM"
value = 190

[[record]]
query_smiles = "CCOc1cc(Br)c(Br)cc1N(Cc1ccccc1)S(=O)(=O)c1ccccc1"
system_under_test = "butyrylcholinesterase (BChE) (Homo sapiens)"
reading_unit = "µM"
value = 58.7


// switching to the query compound
For this compound ( `CCOc1cc(Br)c(Br)cc1N(CCCc1ccccc1)S(=O)(=O)c1ccccc1` ), measured IC50 is 57.5
